- target desc: recombinant human Myt1 (full length PKMYT1) (Homo sapiens (Human), UniProt Q99640)
- Sequence (Q99640 whole entry): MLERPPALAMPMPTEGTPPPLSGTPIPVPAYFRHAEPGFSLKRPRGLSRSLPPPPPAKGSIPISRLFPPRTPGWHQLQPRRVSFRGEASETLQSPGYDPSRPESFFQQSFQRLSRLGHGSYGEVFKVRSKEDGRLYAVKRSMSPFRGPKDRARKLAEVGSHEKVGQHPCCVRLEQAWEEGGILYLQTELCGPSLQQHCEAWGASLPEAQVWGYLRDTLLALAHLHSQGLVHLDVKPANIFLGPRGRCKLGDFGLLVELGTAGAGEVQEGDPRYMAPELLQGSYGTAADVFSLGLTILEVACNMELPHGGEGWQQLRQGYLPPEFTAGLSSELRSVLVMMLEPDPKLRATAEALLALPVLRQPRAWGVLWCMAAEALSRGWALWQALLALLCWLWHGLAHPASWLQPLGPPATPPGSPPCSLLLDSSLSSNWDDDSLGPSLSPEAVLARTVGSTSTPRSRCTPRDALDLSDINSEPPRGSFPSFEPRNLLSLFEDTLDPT
- assay explanation: Recombinant human Myt1 kinase assay (ADP-Glo)
- measurement setup: 10 μM ATP
Binarize IC50 at 20 nM; below is fulfilled, at or above is not fulfilled.

{"columns": ["compound", "classification"],
 "data": [
  ["Cc1ccc2[nH]ncc2c1-c1nc(-c2ccccc2NCC(F)F)nc(C(N)=O)c1N [Compound 400]", "fulfilled"],
  ["Cc1ccc2[nH]ncc2c1-c1cc(-c2cccc(OC[C@H](N)c3ccccc3)n2)nc(C(N)=O)c1N (atropisomer, axis not shown) [Compound 338]", "not fulfilled"],
  ["Cc1ccc2[nH]ncc2c1-c1nc(-c2cccnc2NC(C)(C)C2CCCO2)nc(C(N)=O)c1N (stereo not drawn) [Compound 881]", "fulfilled"],
  ["COc1ccccc1COc1cccc(-c2cc(-c3c(C)ccc4[nH]ncc34)c(N)c(C(N)=O)n2)n1 [Compound 181]", "not fulfilled"],
  ["Cc1ccc2[nH]ncc2c1-c1nc(-c2ccccc2NC(=O)c2cccc(F)c2)nc(C(N)=O)c1N [Compound 460]", "fulfilled"],
  ["COc1cnc(COc2cccc(-c3cc(-c4c(C)ccc5[nH]ncc45)c(N)c(C(N)=O)n3)n2)nc1 [Compound 255]", "not fulfilled"],
  ["Cc1ccc(O)cc1-c1nc(-c2cc(F)cc(F)c2)nc(C(N)=O)c1N [Compound 22]", "fulfilled"],
  ["Cc1ccc(O)c(C)c1-c1cc(-c2cc(C(F)(F)F)ccn2)nc(C(N)=O)c1N [Compound 67]", "fulfilled"],
  ["Cc1ccc(O)c(C)c1-c1cc(-c2ncccn2)cc(C(N)=O)c1N [Compound 78]", "fulfilled"],
  ["Cc1ccc2[nH]ncc2c1-c1cc(-c2cccc(N[C@H](CO)c3ccccc3)n2)nc(C(N)=O)c1N [Compound 274]", "fulfilled"],
  ["Cc1ccc(O)c(C)c1-c1cc(-c2ccnnc2)cc(C(N)=O)c1N [Compound 93]", "not fulfilled"],
  ["Cc1ccc(-c2nc(C(N)=O)c(N)c(-c3cc(O)ccc3C)n2)cc1 [Compound 20]", "not fulfilled"],
  ["Cc1ccc2[nH]ncc2c1-c1cc(-c2cccc(OCc3cncs3)n2)nc(C(N)=O)c1N [Compound 279]", "fulfilled"],
  ["NC(=O)c1nc(-c2cccnc2)cc(-c2c(C(F)F)ccc3[nH]ncc23)c1N [Compound 321]", "not fulfilled"],
  ["Cc1ccc2[nH]ncc2c1-c1nc(-c2ccc(C(F)(F)F)cc2NC(=O)C2(C)CC2)nc(C(N)=O)c1N [Compound 454]", "not fulfilled"]
]}

* * *

- target desc: recombinant human Myt1 (full length PKMYT1) (Homo sapiens (Human))
- assay explanation: Recombinant human Myt1 kinase assay (ADP-Glo)
- measurement setup: 10 μM ATP
pIC50: −log10 of the molar value.
Where pIC50 equals or exceeds 8, the correct label is True; where it does not, the label is False.

{"columns": ["molecule", "target desc", "classification"],
 "data": [
  ["Cc1ccc2[nH]ncc2c1-c1nc(-c2cccnc2Nc2cccc(C(N)=O)c2)nc(C(N)=O)c1N [Compound 609]", "recombinant human Myt1 (full length PKMYT1) (Homo sapiens (Human))", "True"],
  ["Cc1ccc(O)cc1-c1nc(-c2ccc(F)c(Cl)c2)nc(C(N)=O)c1N [Compound 28]", "recombinant human Myt1 (full length PKMYT1) (Homo sapiens (Human))", "False"],
  ["Cc1ccc2[nH]ncc2c1-c1cc(-c2cccc(OCc3nccc(N4CCOCC4)n3)n2)nc(C(N)=O)c1N [Compound 259]", "recombinant human Myt1 (full length PKMYT1) (Homo sapiens (Human))", "False"],
  ["Cc1ccc2[nH]ncc2c1-c1nc(-c2cccc(C(=O)O)c2)nc(C(N)=O)c1N [Compound 150]", "recombinant human Myt1 (full length PKMYT1) (Homo sapiens (Human))", "False"],
  ["Cc1cccc(-c2cc(-c3c(C)ccc(O)c3C)c(N)c(C(N)=O)n2)n1 [Compound 91]", "recombinant human Myt1 (full length PKMYT1) (Homo sapiens (Human))", "True"],
  ["Cc1ccc2[nH]ncc2c1-c1cc(-c2ccnc(N[C@H]3c4ccccc4C[C@@H]3O)n2)nc(C(N)=O)c1N (atropisomer, axis not shown) [Compound 372]", "recombinant human Myt1 (full length PKMYT1) (Homo sapiens (Human))", "False"],
  ["Cc1ccc2[nH]ncc2c1-c1cc(-c2cccc(O[C@@H](C)c3ncccn3)n2)nc(C(N)=O)c1N [Compound 253]", "recombinant human Myt1 (full length PKMYT1) (Homo sapiens (Human))", "False"],
  ["Cc1ccc2[nH]ncc2c1-c1nc(-c2cccnc2Nc2cccnc2C)nc(C(N)=O)c1N [Compound 623]", "recombinant human Myt1 (full length PKMYT1) (Homo sapiens (Human))", "True"],
  ["Cc1ccc2[nH]ncc2c1-c1cc(-c2ccnc(OC[C@H]3CCC(=O)N3)n2)nc(C(N)=O)c1N [Compound 337]", "recombinant human Myt1 (full length PKMYT1) (Homo sapiens (Human))", "False"],
  ["Cc1ccc2[nH]ncc2c1-c1nc(-c2cc(F)cnc2N[C@H]2CC[C@@](O)(C(F)(F)F)CC2)nc(C(N)=O)c1N [Compound 834]", "recombinant human Myt1 (full length PKMYT1) (Homo sapiens (Human))", "False"],
  ["Cc1ccc2[nH]ncc2c1-c1nc(-c2cccnc2Nc2cccc(C(F)(F)F)c2)nc(C(N)=O)c1N [Compound 608]", "recombinant human Myt1 (full length PKMYT1) (Homo sapiens (Human))", "False"],
  ["Cc1ccc2[nH]ncc2c1-c1cc2c(oc3cccnc32)c(C(N)=O)c1N [Compound 458]", "recombinant human Myt1 (full length PKMYT1) (Homo sapiens (Human))", "True"],
  ["Cc1ccc(-c2nc(C(N)=O)c(N)c(-c3c(C)ccc4[nH]ncc34)n2)c(Nc2nccnc2C)n1 [Compound 658]", "recombinant human Myt1 (full length PKMYT1) (Homo sapiens (Human))", "True"],
  ["COc1ccc(-c2cc(-c3c(C)ccc(O)c3C)c(N)c(C(N)=O)n2)nc1 [Compound 59]", "recombinant human Myt1 (full length PKMYT1) (Homo sapiens (Human))", "True"],
  ["COCCOc1nccc(-c2cc(-c3c(C)ccc4[nH]ncc34)c(N)c(C(N)=O)n2)n1 [Compound 166]", "recombinant human Myt1 (full length PKMYT1) (Homo sapiens (Human))", "True"],
  ["Cc1ccc2[nH]ncc2c1-c1nc(-c2cccc(Cl)c2N)nc(C(N)=O)c1N [Compound 444]", "recombinant human Myt1 (full length PKMYT1) (Homo sapiens (Human))", "False"]
]}

* * *

- target desc: recombinant human Myt1 (full length PKMYT1) (Homo sapiens (Human), UniProt Q99640)
- assay explanation: Recombinant human Myt1 kinase assay (ADP-Glo)
- measurement setup: 10 μM ATP
pIC50: −log10 of the molar value.
Where pIC50 equals or exceeds 8, the correct label is TRUE; where it does not, the label is FALSE.

{"columns": ["molecule", "classification"],
 "data": [
  ["Cc1ccc2[nH]ncc2c1-c1cc(-c2csc(C3(O)COC3)n2)nc(C(N)=O)c1N", "FALSE"],
  ["Cc1ccc2[nH]ncc2c1-c1nc(-c2cccnc2Nc2nccn2C2CC2)nc(C(N)=O)c1N", "FALSE"],
  ["COCc1cccc(-c2nc(C(N)=O)c(N)c(-c3c(C)ccc4[nH]ncc34)n2)c1", "FALSE"],
  ["Cc1cc(-c2nc(C(N)=O)c(N)c(-c3c(C)ccc4[nH]ncc34)n2)cc(C(F)(F)F)c1", "FALSE"],
  ["Cc1ccc2[nH]ncc2c1-c1cc(-c2ccnc(O[C@H](C)c3ncccn3)n2)nc(C(N)=O)c1N (atropisomer, axis not shown)", "FALSE"],
  ["Cc1ccc2n[nH]cc2c1-c1cc(-c2cccc(=O)[nH]2)nc(C(N)=O)c1N", "FALSE"],
  ["COCCOc1ccc(-c2nc(C(N)=O)c(N)c(-c3c(C)ccc4[nH]ncc34)n2)cc1", "FALSE"],
  ["Cc1ccc2[nH]ncc2c1-c1nc(Nc2ncccc2-c2ccncn2)nc(C(N)=O)c1N", "FALSE"],
  ["Cc1ccc2[nH]ncc2c1-c1nc(-c2ccccc2NC(=O)C(C)c2ccccc2)nc(C(N)=O)c1N (stereo not shown)", "FALSE"],
  ["Cc1ccc(O)c(C)c1-c1cc(-c2ccccn2)nc(C(N)=O)c1N", "TRUE"],
  ["Cc1ccc2[nH]ncc2c1-c1cc(-c2ccn(C)n2)nc(C(N)=O)c1N", "FALSE"],
  ["Cc1ccc2[nH]ncc2c1-c1nc(-c2cccnc2NC2(C)CC(C)(O)C2)nc(C(N)=O)c1N (stereo not shown)", "TRUE"],
  ["Cc1ccc2[nH]ncc2c1-c1nc(-c2ccccc2NC(=O)C2(F)CC2)nc(C(N)=O)c1N", "TRUE"],
  ["Cc1ccc2[nH]ncc2c1-c1cc(-c2cncs2)nc(C(N)=O)c1N [Compound 85]", "FALSE"],
  ["Cc1ccc2[nH]ncc2c1-c1cc(-c2ccnc(OCCOCCN(C)C)n2)nc(C(N)=O)c1N", "FALSE"],
  ["Cc1ccc2[nH]ncc2c1-c1nc(-c2cccc(F)c2NCC(F)F)nc(C(N)=O)c1N", "TRUE"]
]}

Data origin, for the record: patent US20250304537A1
